Test system: drug-sensitive and drug-resistant chronic myeloid leukemia cell lines (K562, Lucena-1, FEPS)
protocol-notes: MTT cytotoxicity to CML cell lines, statements over all lines
Format: cell-based
condition-description: Homo sapiens, K562-Lucena 1, statement over K562, Lucena-1 and FEPS; read-out: EC50 against CML cell lines
Experimental: The CML cell lines K562, Lucena-1 (K562/VCR), and FEPS (K562/DNR) were cultured in RPMI-1640 medium supplemented with 25 mM HEPES and 2 g L^−1 sodium bicarbonate adjusted to pH 7.4 with NaOH, 100 U penicillin and 100 g L^−1 streptomycin. […] Cell viability was determined by the 3-(4,5-dimethylthiazol-2-yl)-2,5-diphenyltetrazolium (MTT) colorimetric assay. […] Absorbance was measured on a microplate reader at 570 nm, which is directly proportional to formazan contents and indicative of living cells.
property: EC50

C(=C\c1nc(-c2ccccc2)no1)/c1cccnc1 :: < 20 µM
COc1cc(/C=C/c2nc(-c3ccccc3)no2)cc(OC)c1OC :: < 20 µM
COc1cc(-c2noc(/C=C/c3ccc4c(c3)OCO4)n2)cc(OC)c1OC :: < 20 µM

----------
Some compounds, each annotated with its measured pEC50.
Test system: Lucena-1 (K562/VCR)
protocol-notes: cells
Format: cell-based, human
condition-description: Homo sapiens, Lucena 1, 72 h, read-out: EC50 Lucena-1
Protocol: The CML cell lines K562, Lucena-1 (K562/VCR), and FEPS (K562/DNR) were cultured in RPMI-1640 medium supplemented with 25 mM HEPES and 2 g L^−1 sodium bicarbonate adjusted to pH 7.4 with NaOH, 100 U penicillin and 100 g L^−1 streptomycin. […] Cell viability was determined by the 3-(4,5-dimethylthiazol-2-yl)-2,5-diphenyltetrazolium (MTT) colorimetric assay. […] Absorbance was measured on a microplate reader at 570 nm, which is directly proportional to formazan contents and indicative of living cells. […]
pEC50: −log10 of the molar value.
property: pEC50

COc1cc(/C=C/c2nc(-c3cc(OC)c(OC)c(OC)c3)no2)cc(OC)c1OC [Compound 23] :: 4.91
C(=C\c1nc(-c2ccccc2)no1)/c1ccc2c(c1)OCO2 [Compound 13] :: 4.33
COc1cc(-c2noc(/C=C/c3ccc4c(c3)OCO4)n2)cc(OC)c1OC [Compound 24] :: 4.08
C(=C\c1nc(-c2ccccc2)no1)/c1ccco1 [Compound 16] :: 4.19

----------
System: LLC-MK2 cells
protocol-notes: Cytotoxicity to LLC-MK2 host cells (MTT)
Format: cell-based
condition-description: Macaca mulatta, LLC-MK2; 120 h, MTT
property: EC50 (µM)

COc1cc(-c2noc(/C=C/c3ccc4c(c3)OCO4)n2)cc(OC)c1OC [Compound 24] :: 53.4
COc1cc(/C=C/c2nc(-c3cc(OC)c(OC)c(OC)c3)no2)cc(OC)c1OC [Compound 23] :: 78

----------
Catalogue of molecules with associated melting point
property: melting point

C(=C\c1nc(-c2ccccc2)no1)/c1ccc2c(c1)OCO2 [Compound 13] :: 157 to 159 °C
C(=C\c1nc(-c2ccccc2)no1)/c1cccnc1 [Compound 15] :: 107 to 110 °C
COc1cccc(/C=C/c2nc(-c3ccccc3)no2)c1 [Compound 10] :: 88 to 90 °C
COc1ccc(/C=C/c2nc(-c3ccccc3)no2)cc1 [Compound 11] :: 132 to 135 °C

----------
Entries and their measured viability at 48 h, 16 µM follow.
protocol-notes: Cytotoxicity to BALB/c mouse total splenocytes (MTT)
Assay type: cell-based
condition-description: male, total splenocytes (primary), Table S2 dose-dependent, 16 µM
property: viability at 48 h, 16 µM (%)

C(=C\c1nc(-c2ccccc2)no1)/c1cccnc1 :: 77.7
COc1cc(/C=C/c2nc(-c3cc(OC)c(OC)c(OC)c3)no2)cc(OC)c1OC :: 69.5

----------
Reported values of viability at 48 h, 40 µM for individual entries
protocol-notes: Cytotoxicity to BALB/c mouse total splenocytes (MTT)
Format: cell-based
condition-description: male, total splenocytes (primary), Table S2 dose-dependent, 40 µM
Protocol: BALB/c mouse total splenocytes were harvested from male mice between 6–8 weeks old. After euthanasia, the spleens were removed and macerated in DMEM. After centrifugation, the cells were treated with hemolytic ACK buffer at 37 °C for 5 min. […] After incubation for 48 h at 37 °C in 5% CO2, cell viability was determined after the addition of 20 µL per well of a solution containing MTT salt (3.0 mM) and phenazine metasulphate (0.72 mM). […] Absorbance was measured on a microplate reader at 570 nm. […]
property: viability at 48 h, 40 µM (%)

C(=C\c1nc(-c2ccccc2)no1)/c1cccnc1 [Compound 15] :: 63.1
COc1cc(/C=C/c2nc(-c3cc(OC)c(OC)c(OC)c3)no2)cc(OC)c1OC [Compound 23] :: 43.4

----------
protocol-notes: Cytotoxicity to LLC-MK2 host cells (MTT)
Assay type: cell-based
condition-description: rhesus monkey, LLC-MK2 cells (kidney fibroblasts); host cells at 1.0 μM; read-out: host cell viability
property: viability at 120 h, 1 µM (%)

COc1cc(/C=C/c2nc(-c3cc(OC)c(OC)c(OC)c3)no2)cc(OC)c1OC [Compound 23] :: 93

----------
protocol-notes: Cytotoxicity to BALB/c mouse total splenocytes (MTT)
Assay type: cell-based
condition-description: male, total splenocytes (primary), Table S2 dose-dependent, 2.6 µM
Entries and their viability at 48 h, 2.6 µM
property: viability at 48 h, 2.6 µM

C(=C\c1nc(-c2ccccc2)no1)/c1cccnc1 :: 86.3%
COc1cc(/C=C/c2nc(-c3cc(OC)c(OC)c(OC)c3)no2)cc(OC)c1OC :: 95%

----------
protocol-notes: Cytotoxicity to BALB/c mouse total splenocytes (MTT)
Assay type: cell-based
condition-description: male, total splenocytes (primary), Table S2 dose-dependent, 0.4 µM
property: viability at 48 h, 0.4 µM (%)

COc1cc(/C=C/c2nc(-c3cc(OC)c(OC)c(OC)c3)no2)cc(OC)c1OC [Compound 23] :: 97.3
C(=C\c1nc(-c2ccccc2)no1)/c1cccnc1 [Compound 15] :: 94.5

----------
Catalogue of compounds with associated melting point
property: melting point

COc1cc(-c2noc(/C=C/c3ccccc3)n2)cc(OC)c1OC [Compound 21] :: 138 to 140 °C
COc1cc(-c2noc(/C=C/c3ccc4c(c3)OCO4)n2)cc(OC)c1OC [Compound 24] :: 177 to 180 °C
C(=C\c1nc(-c2ccccc2)no1)/c1ccc2c(c1)OCCO2 [Compound 14] :: 143 to 145 °C
O=[N+]([O-])c1ccc(/C=C/c2nc(-c3ccccc3)no2)cc1 [Compound 20] :: 205 to 208 °C
C(=C\c1nc(-c2ccccc2)no1)/c1ccco1 [Compound 16] :: 83 to 85 °C
COc1cc(/C=C/c2nc(-c3cc(OC)c(OC)c(OC)c3)no2)cc(OC)c1OC [Compound 23] :: 118 to 120 °C
COc1cccc(/C=C/c2nc(-c3cc(OC)c(OC)c(OC)c3)no2)c1 [Compound 22] :: 117 to 119 °C
COc1cc(-c2noc(/C=C/c3ccco3)n2)cc(OC)c1OC [Compound 25] :: 144 to 146 °C
C(=C\c1cccs1)/c1nc(-c2ccccc2)no1 [Compound 17] :: 93 to 95 °C

----------
Each record here notes measured viability at 48 h, 100 µM.
protocol-notes: Cytotoxicity to BALB/c mouse total splenocytes (MTT)
Type: cell-based
condition-description: male, total splenocytes (primary), 100 μM, 48 h, compared to the untreated control (Table S1)
property: viability at 48 h, 100 µM (%)

COc1cccc(/C=C/c2nc(-c3cc(OC)c(OC)c(OC)c3)no2)c1 :: 63.5
Clc1ccc(/C=C/c2nc(-c3ccccc3)no2)cc1 :: 90.5
COc1cc(-c2noc(/C=C/c3ccco3)n2)cc(OC)c1OC :: 63.7
COc1cc(/C=C/c2nc(-c3ccccc3)no2)cc(OC)c1OC :: 72.1
O=[N+]([O-])c1ccc(/C=C/c2nc(-c3ccccc3)no2)cc1 :: 77.8
C(=C\c1nc(-c2ccccc2)no1)/c1ccc2c(c1)OCCO2 :: 93.6
Fc1ccc(/C=C/c2nc(-c3ccccc3)no2)cc1 :: 102
COc1cccc(/C=C/c2nc(-c3ccccc3)no2)c1 :: 85.4
COc1cc(-c2noc(/C=C/c3ccc4c(c3)OCO4)n2)cc(OC)c1OC :: 72.8
C(=C\c1nc(-c2ccccc2)no1)/c1ccccc1 :: 102
COc1ccc(/C=C/c2nc(-c3ccccc3)no2)cc1 :: 84.4
C(=C\c1nc(-c2ccccc2)no1)/c1ccc2c(c1)OCO2 :: 98.8
C(=C\c1nc(-c2ccccc2)no1)/c1ccco1 :: 53.5
C(=C\c1cccs1)/c1nc(-c2ccccc2)no1 :: 99
COc1cc(-c2noc(/C=C/c3ccccc3)n2)cc(OC)c1OC :: 76.8
